The reported measurements were obtained from BindingDB's records for doi:10.1016/0960-894X(95)00565-B.

- Measured on: Arachidonate 15-lipoxygenase (Oryctolagus cuniculus)
- Assay summary: Inhibitory activity against reticulocyte 15-lipoxygenase in rabbit was evaluated.
Please go through the items and note down their IC50.

Measured on Arachidonate 15-lipoxygenase (Oryctolagus cuniculus), Cc1ccc(C(=O)N(C)c2ccc(CCc3ccc(O)c(O)c3)cc2)c(O)c1 has a documented IC50 of 5 µM

Measured on Arachidonate 15-lipoxygenase (Oryctolagus cuniculus), O=C(O)c1cccc(C(=O)Nc2ccc(CCc3ccc(O)c(O)c3)cc2)c1O has a documented IC50 of > 25 µM

Measured on Arachidonate 15-lipoxygenase (Oryctolagus cuniculus), O=C(Nc1ccc(CCc2ccc(O)c(O)c2)cc1)c1ccc(O)cc1O has a documented IC50 of 5 µM

Measured on Arachidonate 15-lipoxygenase (Oryctolagus cuniculus), O=C(Nc1ccc(CCc2ccc(O)c(O)c2)cc1)c1cc(Br)ccc1O has a documented IC50 of 1.5 µM

Measured on Arachidonate 15-lipoxygenase (Oryctolagus cuniculus), COc1cc(CCc2ccc(NC(=O)c3ccc(C)cc3O)cc2)ccc1O has a documented IC50 of > 25 µM

Measured on Arachidonate 15-lipoxygenase (Oryctolagus cuniculus), COc1ccc(CCc2ccc(NC(=O)c3ccccc3O)cc2)cc1OC has a documented IC50 of > 25 µM

Measured on Arachidonate 15-lipoxygenase (Oryctolagus cuniculus), O=C(Nc1ccc(CCc2ccc(O)c(O)c2)cc1)c1cccc(Cl)c1O has a documented IC50 of 1.2 µM

Measured on Arachidonate 15-lipoxygenase (Oryctolagus cuniculus), O=C(Nc1ccc(CCc2ccc(O)c(O)c2)cc1)c1ccc(-c2ccccc2)cc1O has a documented IC50 of > 25 µM
